# TGT: B. anthracis OSB-CoA synthetase (Bacillus anthracis, UniProt Q81K97)
# Sequence (Q81K97 whole entry, looked up): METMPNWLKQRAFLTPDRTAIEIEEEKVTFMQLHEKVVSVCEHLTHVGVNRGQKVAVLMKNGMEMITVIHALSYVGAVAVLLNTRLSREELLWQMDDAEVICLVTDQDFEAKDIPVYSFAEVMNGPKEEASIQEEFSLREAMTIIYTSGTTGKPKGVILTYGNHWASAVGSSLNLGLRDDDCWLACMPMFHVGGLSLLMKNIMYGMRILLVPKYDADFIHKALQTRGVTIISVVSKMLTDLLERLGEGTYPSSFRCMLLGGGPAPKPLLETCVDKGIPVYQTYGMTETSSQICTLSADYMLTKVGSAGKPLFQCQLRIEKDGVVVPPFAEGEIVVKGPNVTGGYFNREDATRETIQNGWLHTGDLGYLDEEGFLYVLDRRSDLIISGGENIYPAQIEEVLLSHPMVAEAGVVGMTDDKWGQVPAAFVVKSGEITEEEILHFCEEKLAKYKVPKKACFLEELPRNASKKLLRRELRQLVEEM
RECORDED_METRIC: Kd (µM)

INSERT INTO assay_data (compound, result) VALUES
  ('Nc1ncnc2c1ncn2[C@@H]1O[C@H](COP(=O)(O)OP(=O)(O)OP(=O)(O)O)[C@@H](O)[C@H]1O [ATP]', 131);
